# TARGET_ENTITY: βTrCP (Homo sapiens)
# Sequence (Q9Y297 1-605): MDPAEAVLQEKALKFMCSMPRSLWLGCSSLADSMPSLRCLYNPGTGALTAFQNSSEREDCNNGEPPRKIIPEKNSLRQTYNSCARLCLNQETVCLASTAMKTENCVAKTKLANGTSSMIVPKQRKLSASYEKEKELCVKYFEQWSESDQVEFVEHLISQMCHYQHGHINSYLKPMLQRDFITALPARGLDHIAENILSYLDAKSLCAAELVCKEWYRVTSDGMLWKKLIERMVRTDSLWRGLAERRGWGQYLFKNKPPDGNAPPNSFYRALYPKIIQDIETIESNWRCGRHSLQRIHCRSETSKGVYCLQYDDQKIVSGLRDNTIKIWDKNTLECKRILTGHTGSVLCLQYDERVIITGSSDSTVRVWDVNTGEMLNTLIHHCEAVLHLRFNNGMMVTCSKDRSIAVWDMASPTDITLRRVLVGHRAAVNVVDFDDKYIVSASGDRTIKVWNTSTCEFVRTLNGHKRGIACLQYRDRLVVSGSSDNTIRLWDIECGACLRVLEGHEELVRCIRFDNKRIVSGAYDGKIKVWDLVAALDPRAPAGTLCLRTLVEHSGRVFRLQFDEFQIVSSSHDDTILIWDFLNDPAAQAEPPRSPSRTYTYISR
# EXPERIMENTAL_PROTOCOL: Biotin pull down assay with biotinylated IκB peptide
# Format: binding
# CONDITION_INFO: 10 μM compound
Starred links: 1 amine or outer side, 2 acyl side, 3 side chain; linkers in the order of their positions; H or OH if unused. Non-standard residues stand in square brackets, D forms with d. Residues, ends and D or L forms follow the SMILES beside them. *: point of attachment. Phe(4-NO2) = N[C@@H](Cc1ccc([N+](=O)[O-])cc1)C(=O)O; Phe(3-Cl) = N[C@@H](Cc1cccc(Cl)c1)C(=O)O; Phe(3-F) = N[C@@H](Cc1cccc(F)c1)C(=O)O; Maleoyl = O=C(/C=C\C(=O)[*:2])[*:1]; Suc = O=C(CCC(=O)[*:2])[*:1]; Tos = Cc1ccc(S(=O)(=O)*)cc1; Ethoxycarbonyl = CCOC(=O)*; Moc = COC(=O)*
MEASUREMENT_TYPE: Biotin Pulldown Assay 10 μM

Study these solved cases before continuing.
COC(=O)N[C@H](CC(=O)O)C(=O)N[C@@H](CCC(=O)O)C(=O)NCC(=O)N[C@@H](Cc1cccc(F)c1)C(=O)N[C@@H](Cc1c[nH]c2ccccc12)C(=O)N[C@@H](CCC(=O)O)C(N)=O [UBP020, MeO(CO)-dEGF(3F)WE-NH2] (Moc-[dD]EG[Phe(3-F)]WE-NH2) | reduces/
NC(=O)[C@H](CCC(=O)O)NC(=O)[C@H](Cc1ccccc1)NC(=O)[C@H](Cc1ccccc1)NC(=O)CNC(=O)[C@H](CCC(=O)O)NC(=O)CCC(=O)O [UBP002, Suc-EGFFE-NH2] (Suc-EGFFE-NH2) | no effect/
CCOC(=O)N[C@H](CC(=O)O)C(=O)N[C@@H](CCC(=O)O)C(=O)NCC(=O)N[C@@H](Cc1cccc(F)c1)C(=O)N[C@@H](Cc1c[nH]c2ccccc12)C(=O)N[C@@H](CCC(=O)O)C(N)=O [UBP023, EtO(CO)-dEGF(3F)WE-NH2] (Ethoxycarbonyl-[dD]EG[Phe(3-F)]WE-NH2) | reduces/
Cc1ccc(S(=O)(=O)N[C@H](CC(=O)O)C(=O)N[C@@H](CCC(=O)O)C(=O)NCC(=O)N[C@@H](Cc2cccc(Cl)c2)C(=O)N[C@@H](Cc2c[nH]c3ccccc23)C(=O)N[C@@H](CCC(=O)O)C(N)=O)cc1 [UBP034, Ts-dEGF(3Cl)WE-NH2] (Tos-[dD]EG[Phe(3-Cl)]WE-NH2) | s. reduces/
NC(=O)[C@H](CCC(=O)O)NC(=O)[C@H](Cc1ccc([N+](=O)[O-])cc1)NC(=O)[C@H](Cc1cccc(F)c1)NC(=O)CNC(=O)[C@H](CCC(=O)O)NC(=O)/C=C\C(=O)O [UBP008, Mal-EGF(3F)F(4NO2)E-NH2] (Maleoyl-EG[Phe(3-F)][Phe(4-NO2)]E-NH2) | no effect/

Now for another entry.
Could you tell me which Biotin Pulldown Assay 10 μM is on file for Cc1ccc(S(=O)(=O)N[C@H](CC(=O)O)C(=O)N[C@@H](CC(=O)O)C(=O)NCC(=O)N[C@@H](Cc2cccc(F)c2)C(=O)N[C@@H](Cc2c[nH]c3ccccc23)C(=O)N[C@@H](CCC(=O)O)C(N)=O)cc1 [UBP025, Ts-dDGF(3F)WE-NH2] (Tos-[dD]DG[Phe(3-F)]WE-NH2) ?
s. reduces/

###

# TARGET_ENTITY: βTrCP (Homo sapiens)
# EXPERIMENTAL_PROTOCOL: Fluorescence polarisation (FP) binding assay with fluorescein-tagged IκB peptide
# CONDITION_INFO: Table 11, with spread; read-out: FP IC50/μM
# Sequence (P63208 whole entry partner, one chain of several): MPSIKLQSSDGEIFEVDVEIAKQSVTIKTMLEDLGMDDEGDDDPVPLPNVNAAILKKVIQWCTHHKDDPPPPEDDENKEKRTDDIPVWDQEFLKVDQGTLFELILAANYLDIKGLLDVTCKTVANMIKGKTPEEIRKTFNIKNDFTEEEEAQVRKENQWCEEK
Starred links: 1 amine or outer side, 2 acyl side, 3 side chain; linkers in the order of their positions; H or OH if unused. Non-standard residues stand in square brackets, D forms with d. Residues, ends and D or L forms follow the SMILES beside them. *: point of attachment. Phe(4-NO2) = N[C@@H](Cc1ccc([N+](=O)[O-])cc1)C(=O)O; Benzenesulfonyl(4-OMe) = COc1ccc(S(=O)(=O)*)cc1; Phe(3-F) = N[C@@H](Cc1cccc(F)c1)C(=O)O; 1Nal = N[C@@H](Cc1cccc2ccccc12)C(=O)O; Phe(2-F) = N[C@@H](Cc1ccccc1F)C(=O)O; Suc = O=C(CCC(=O)[*:2])[*:1]; Tos = Cc1ccc(S(=O)(=O)*)cc1
MEASUREMENT_TYPE: IC50 (µM)
Give your result in µM as a bare value.

Study these solved cases before continuing.
Cc1ccc(S(=O)(=O)N[C@H](CC(=O)O)C(=O)N[C@@H](CCC(=O)O)C(=O)NCC(=O)N[C@@H](Cc2cccc(F)c2)C(=O)N[C@@H](Cc2c[nH]c3ccccc23)C(=O)N[C@@H](CCC(=O)O)C(N)=O)cc1 [Ts-dEGF(3F)WE-NH2] (Tos-[dD]EG[Phe(3-F)]WE-NH2) | 0.029
COc1ccc(S(=O)(=O)N[C@H](CC(=O)O)C(=O)N[C@@H](CCC(=O)O)C(=O)NCC(=O)N[C@@H](Cc2cccc(F)c2)C(=O)N[C@@H](Cc2c[nH]c3ccccc23)C(=O)N[C@@H](CCC(=O)O)C(N)=O)cc1 [4-(MeO)-PhSO2-dEGF(3F)WE-NH2] ({Benzenesulfonyl(4-OMe)}-[dD]EG[Phe(3-F)]WE-NH2) | 0.017
NC(=O)[C@H](CCC(=O)O)NC(=O)[C@H](Cc1ccc([N+](=O)[O-])cc1)NC(=O)[C@H](Cc1ccccc1F)NC(=O)CNC(=O)[C@H](CCC(=O)O)NC(=O)CCC(=O)O [UBP003, Suc-EGF(2F)F(4NO2)E-NH2] (Suc-EG[Phe(2-F)][Phe(4-NO2)]E-NH2) | 4.91

Now for another entry.
Could you tell me which IC50 is on file for CC(=O)N[C@H](CC(=O)O)C(=O)N[C@@H](CCC(=O)O)C(=O)NCC(=O)N[C@@H](Cc1cccc(F)c1)C(=O)N[C@@H](Cc1cccc2ccccc12)C(=O)N[C@@H](CCC(=O)O)C(N)=O [UBP016, Ac-dEGF(3F)1NalE-NH2] (Ac-[dD]EG[Phe(3-F)][1Nal]E-NH2) ?
0.112

###

Overview of reported inhibition at 100 µM across a group of compounds:
# TARGET_ENTITY: FBW7/Skp1 (Homo sapiens, UniProt Q969H0)
# Sequence (Q969H0 whole entry, species assumed): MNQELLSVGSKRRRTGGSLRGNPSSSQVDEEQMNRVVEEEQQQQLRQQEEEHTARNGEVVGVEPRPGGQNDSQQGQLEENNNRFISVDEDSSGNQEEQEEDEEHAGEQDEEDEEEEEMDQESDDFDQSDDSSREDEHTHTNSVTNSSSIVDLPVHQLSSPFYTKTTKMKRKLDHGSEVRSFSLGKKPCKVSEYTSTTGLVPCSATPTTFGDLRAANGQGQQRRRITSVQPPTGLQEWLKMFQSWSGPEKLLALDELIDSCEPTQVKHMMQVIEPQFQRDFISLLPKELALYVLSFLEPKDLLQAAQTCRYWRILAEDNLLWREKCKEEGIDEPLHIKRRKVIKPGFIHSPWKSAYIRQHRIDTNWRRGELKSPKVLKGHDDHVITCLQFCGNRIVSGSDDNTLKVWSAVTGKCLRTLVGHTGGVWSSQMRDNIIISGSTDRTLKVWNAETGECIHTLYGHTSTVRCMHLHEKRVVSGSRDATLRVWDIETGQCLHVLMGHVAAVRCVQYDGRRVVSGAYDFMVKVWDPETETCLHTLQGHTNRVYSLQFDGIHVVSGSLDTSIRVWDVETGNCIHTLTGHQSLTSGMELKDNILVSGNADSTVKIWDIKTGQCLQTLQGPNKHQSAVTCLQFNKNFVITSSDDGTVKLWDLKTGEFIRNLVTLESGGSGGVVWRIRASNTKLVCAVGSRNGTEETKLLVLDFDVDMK
# Sequence (P63208 whole entry partner, species assumed): as the sequence (P63208 whole entry partner, one chain of several) above
# Sequence (Q13616 whole entry partner, species assumed): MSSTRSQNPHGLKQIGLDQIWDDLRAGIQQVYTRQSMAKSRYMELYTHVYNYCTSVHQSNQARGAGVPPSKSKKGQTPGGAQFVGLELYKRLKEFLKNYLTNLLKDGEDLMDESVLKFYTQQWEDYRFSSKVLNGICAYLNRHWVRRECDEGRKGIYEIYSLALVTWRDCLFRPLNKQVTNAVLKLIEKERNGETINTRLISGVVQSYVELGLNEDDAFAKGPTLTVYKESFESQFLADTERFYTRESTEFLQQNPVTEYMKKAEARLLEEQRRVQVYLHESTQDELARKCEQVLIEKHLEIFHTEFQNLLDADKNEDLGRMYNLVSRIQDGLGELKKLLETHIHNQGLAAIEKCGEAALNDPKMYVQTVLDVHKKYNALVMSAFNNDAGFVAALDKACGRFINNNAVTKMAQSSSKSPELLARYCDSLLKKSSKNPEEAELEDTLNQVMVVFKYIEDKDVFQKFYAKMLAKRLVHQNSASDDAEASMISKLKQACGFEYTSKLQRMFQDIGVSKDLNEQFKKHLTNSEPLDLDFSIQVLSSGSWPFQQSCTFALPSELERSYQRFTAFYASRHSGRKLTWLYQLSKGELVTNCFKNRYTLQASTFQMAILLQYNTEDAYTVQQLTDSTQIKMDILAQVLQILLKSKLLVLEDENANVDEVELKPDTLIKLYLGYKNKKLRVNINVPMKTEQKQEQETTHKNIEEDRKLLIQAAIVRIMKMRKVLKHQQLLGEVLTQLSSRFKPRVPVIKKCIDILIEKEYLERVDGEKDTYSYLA
# Sequence (P62877 whole entry partner, species assumed): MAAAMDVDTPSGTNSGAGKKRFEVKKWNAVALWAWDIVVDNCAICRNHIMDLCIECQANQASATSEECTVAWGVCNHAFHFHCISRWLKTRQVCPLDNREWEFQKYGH
# EXPERIMENTAL_PROTOCOL: Selectivity assay vs other E3s: Fbw7
# Type: biochemical
# CONDITION_INFO: 100 μM, value in brackets; read-out: % Inhibition Fbw7 @ (100 μM)
Starred links: 1 amine or outer side, 2 acyl side, 3 side chain; linkers in the order of their positions; H or OH if unused. Non-standard residues stand in square brackets, D forms with d. Residues, ends and D or L forms follow the SMILES beside them. *: point of attachment. Phe(4-NO2) = N[C@@H](Cc1ccc([N+](=O)[O-])cc1)C(=O)O; Phe(3-F) = N[C@@H](Cc1cccc(F)c1)C(=O)O; Phe(2-F) = N[C@@H](Cc1ccccc1F)C(=O)O; Maleoyl = O=C(/C=C\C(=O)[*:2])[*:1]; Suc = O=C(CCC(=O)[*:2])[*:1]; Tos = Cc1ccc(S(=O)(=O)*)cc1
Give your result in % as a bare value.

Study these solved cases before continuing.
NC(=O)[C@H](CCC(=O)O)NC(=O)[C@H](Cc1ccc([N+](=O)[O-])cc1)NC(=O)[C@H](Cc1cccc(F)c1)NC(=O)CNC(=O)[C@H](CCC(=O)O)NC(=O)/C=C\C(=O)O [UBP008, Mal-EGF(3F)F(4NO2)E-NH2] (Maleoyl-EG[Phe(3-F)][Phe(4-NO2)]E-NH2) | 18
NC(=O)[C@H](CCC(=O)O)NC(=O)[C@H](Cc1ccc([N+](=O)[O-])cc1)NC(=O)[C@H](Cc1ccccc1F)NC(=O)CNC(=O)[C@H](CCC(=O)O)NC(=O)CCC(=O)O [UBP003, Suc-EGF(2F)F(4NO2)E-NH2] (Suc-EG[Phe(2-F)][Phe(4-NO2)]E-NH2) | 0
Cc1ccc(S(=O)(=O)N[C@H](CC(=O)O)C(=O)N[C@@H](CCC(=O)O)C(=O)NCC(=O)N[C@@H](Cc2cccc(F)c2)C(=O)N[C@@H](Cc2c[nH]c3ccccc23)C(=O)N[C@@H](CCC(=O)O)C(N)=O)cc1 [Ts-dEGF(3F)WE-NH2] (Tos-[dD]EG[Phe(3-F)]WE-NH2) | 0

Now for another entry.
Could you tell me which inhibition at 100 µM is on file for Cc1ccc(S(=O)(=O)N[C@H](CC(=O)O)C(=O)N[C@@H](CC(=O)O)C(=O)NCC(=O)N[C@@H](Cc2cccc(F)c2)C(=O)N[C@@H](Cc2c[nH]c3ccccc23)C(=O)N[C@@H](CCC(=O)O)C(N)=O)cc1 [UBP025, Ts-dDGF(3F)WE-NH2] (Tos-[dD]DG[Phe(3-F)]WE-NH2) ?
8

Provenance of the data: patent US20190106460A1
